Experiment: yeast display, Sf9 membrane polyspecificity reagent, FACS + sequencing; frameworks hold sequencing errors

- Sequence: "QVQLVESGGGLVQAGGSLRLSCAASGFTSNEYAMGWYRPAAGTERELVAAISKSGGRTYYADSVKGRFTISRDNAKNTVYLQMNSLKPEDTAVYYCGKRRNTTYYAGGFDYWGQGTKVTVSS"
  polyreactivity (PSR sort gate): "high polyreactivity"
- Sequence: "QVQLVESGGGLVQAGGSLRLSCAASGSTFSGYTMGWYRQAPGKEREFVAAISVSGGSTYYADSVKGRFTISRDNAKNTVYLQMNSLKPEDTAVYYCNTVTSGFLSYDYWGQGTQVTVSS"
  polyreactivity (PSR sort gate): "high polyreactivity"

* * *

Assay: yeast display, Sf9 membrane polyspecificity reagent, FACS + sequencing; frameworks hold sequencing errors
Parameter: polyreactivity (PSR sort gate)

Below: 5 sequences and their reported polyreactivity (PSR sort gate).
- Sequence: "QVQLVESGGGLVQAGGSLRLSCAASGITFYDNVMGWYRQAPGKERELVAAITSGGSTNYADSVKGRFTISRDNAKNTVYLQMNSLKPEDTAVYYCAAEGISVTAAQSEWYDYWGQGTQVTVSS"
  Reported result: "low polyreactivity"
- Sequence: "QVQLVESGGGLVQAGGSLRLSCAASGSTFYGYTMGWYRQAPGKERELVAAISSSGSSTYYADSVKGRFTISRDNAKNTVYLQMNSLKPEDTAVYYCAAATRVPGHGSTSYYYWGQGTQVTVSS"
  Reported result: "high polyreactivity"
- Sequence: "QVQLVESGGGLVQAGGSLRLSCAASGSIFRAYAMGWYRQAPGKERELVAAITRGGSTNYADSVKGRFTISRDNAKNNVYLQMKSLKPEDTAVYYCAAQNYWYYPRRFDYWGQGTQVTVSS"
  Reported result: "high polyreactivity"
- Sequence: "QVQLVESGGGLVQAGGSLRLSCAASGSTFLINAMGWYRQAPGKERELVAAISRDGSTNYADSVKGRFTISRDNAKNTVYLQMNSLKPEDTAVYYCAAVQGISVGRQPGYDYDYWGQGTQVTVSS"
  Reported result: "low polyreactivity"
- Sequence: "QVQLVESGGGLVQARGSLRLTCAASGRNFYLNAMGWYRQAPGKERELVAAITWSGGRTYYADSVKGRFTISRDNAKNTVYLQMYSLKPEDTAFYYCAAVPRPGPNTVLTPYVYWGQGTQVTVSS"
  Reported result: "high polyreactivity"

Query sequence follows.
Record "QVQLVESGGGLVQAGGSLRLSCAASGSIFGVNAMGWYRQAPGKERELVASITGGDSTNYADSVKGRFTISRDNAKNTVYLQMNSLKPEDTAVYYCAKDHYYRYEEGDYWGQGTQVTVSS" . Reported polyreactivity (PSR sort gate): low polyreactivity

* * *

Experiment: yeast display, Sf9 membrane polyspecificity reagent, FACS + sequencing; frameworks hold sequencing errors
Parameter: polyreactivity (PSR sort gate)

Guide cases for polyreactivity (PSR sort gate), answers given:
- Sequence: "QVQLVESGAGLVQAGGSLRLSCAATGLTFDYNAMGWYRKAPGKERELVAAITWSGGSTYYADSVKGRFTISRDNAKNTVYLQMNSLKTEDTAVYYCATESYGLDYYDEYNYWGQGTQVTVSS"
  polyreactivity (PSR sort gate): "low polyreactivity"
- Sequence: "QVQLVESGGGLVQGGGSLRLSCAASGIIFFNNVMGWYRLAPGKERELVAAITFSGSSTYYADSVKGRFTISRDNAKNTVYLQMNSLKTEDTAVYYCAAYRSGHGIIDYDSWGQGTQVTVSS"
  polyreactivity (PSR sort gate): "low polyreactivity"
- Sequence: "QVQLVESGGGLVQAGGSLRLSCAASGRIFRYYAMGWYRQAPGKERELVAAIDSVGSTYYADSVKGRFTISRDNAKNTVYLQMNSLKPEDTAVYYCNARVYTFPTRYDYWGQGTQVTVSS"
  polyreactivity (PSR sort gate): "high polyreactivity"
- Sequence: "QVQLVESGGGLVQAGGSLRLSCAASGIFYRYAMGWYRQAPGKEREFVAAISSTGGSTYYADSVKGRFTISRDNAKNSVYLQMNSLKPEDTAVYYCAKRGSRSGRSDYWGQGTQVTVSS"
  polyreactivity (PSR sort gate): "low polyreactivity"

Continue with the sequence presented below.
The recorded polyreactivity (PSR sort gate) for entry "QVQLVESGGGLVQAGGSLRLSCAASGITFIRNAMGWYRQAPGKERELVAAISYRGGSTYYADSVKGRFTISRDNAKNTVYLQMNSLKPEDTAVYYCAAKRYGYKMYYWGQGTQVTVSS" equals high polyreactivity
